Test Method Notes: Transepithelial transport (permeability) across Caco-2 cell monolayers, HPLC-PDA, with or without β-glucuronidase/sulfatase deconjugation
Type: in vitro ADME, human
Experimental Setup: human, Caco-2, pH 7.4, pure RA 3.267 µg/mL; after β-glucuronidase/sulfatase; read-out: Papp A-B Direction (after Deconjugation)
Property Label: Papp A→B at 120 min, 3.267 µg/mL (×10⁻⁶ cm/s)
Give bare numbers, in ×10⁻⁶ cm/s.

// Papp A→B at 120 min, 3.267 µg/mL lookup, key: O=C(/C=C/c1ccc(O)c(O)c1)O[C@H](Cc1ccc(O)c(O)c1)C(=O)O [RA, Rosmarinic acid]
41.2

---

Test Method Notes: Cytotoxicity test, MTT assay
Format: cell-based, human
Experimental Setup: human, Caco-2 cells, 1000 µg/mL, read-out: cell viability
Property Label: viability at 24 h, 1000 µg/mL (%)
Answers are plain numbers, in %.

// viability at 24 h, 1000 µg/mL lookup, key: "O=C(/C=C/c1ccc(O)c(O)c1)O[C@H](Cc1ccc(O)c(O)c1)C(=O)O"
85

---

Test Method Notes: Transepithelial transport (permeability) across Caco-2 cell monolayers, HPLC-PDA, with or without β-glucuronidase/sulfatase deconjugation
Assay type: in vitro ADME, human
Experimental Setup: human, Caco-2, pH 7.4, pure RA 6.808 µg/mL; after β-glucuronidase/sulfatase; read-out: Papp B-A Direction (after Deconjugation)
Property Label: Papp B→A at 120 min, 6.808 µg/mL
# output: number + unit

// Papp B→A at 120 min, 6.808 µg/mL lookup, key: O=C(/C=C/c1ccc(O)c(O)c1)O[C@H](Cc1ccc(O)c(O)c1)C(=O)O [RA, Rosmarinic acid]
6.2 ×10⁻⁶ cm/s

---

Test Method Notes: Transepithelial transport (permeability) across Caco-2 cell monolayers, HPLC-PDA, with or without β-glucuronidase/sulfatase deconjugation
Assay type: in vitro ADME, human
Experimental Setup: human, Caco-2, pH 7.4, pure RA 3.267 µg/mL; after β-glucuronidase/sulfatase; read-out: Papp B-A Direction (after Deconjugation)
Property Label: Papp B→A at 120 min, 3.267 µg/mL (×10⁻⁶ cm/s)
Give bare numbers, in ×10⁻⁶ cm/s.

// Papp B→A at 120 min, 3.267 µg/mL lookup, key: "O=C(/C=C/c1ccc(O)c(O)c1)O[C@H](Cc1ccc(O)c(O)c1)C(=O)O"
20.4
